Data origin: PubChem BioAssay AID1918994

Recorded viability, T/C for the following compounds
- Test system: 292921-168-R-J2-PDC complex spheroid growth
- Assay method text: Anticancer human tumor 292921-168-R-J2-PDC patient-derived pancreatic carcinoma cell line growth inhibition [AhR]
- Run conditions: second compound 0.316 µM; first compound 0.1 µM; hits give low values
Readout: viability, T/C (%)

Nc1ncn(C2CC(O)C(CO)O2)c(=O)n1 (stereo unspecified) + CC(CO)NC(=O)c1cc(-c2ccc(Cl)cc2)nn(-c2cnn(C)c2)c1=O: 90.8
COc1cc(Nc2ncc3c(n2)-c2ccc(Cl)cc2C(c2c(F)cccc2OC)=NC3)ccc1C(=O)O + CC(CO)NC(=O)c1cc(-c2ccc(Cl)cc2)nn(-c2cnn(C)c2)c1=O: 40.1
COc1cc(C2c3cc4c(cc3C(OC3OC5COC(C)OC5C(O)C3O)C3COC(=O)C23)OCO4)cc(OC)c1O (stereo unspecified) + CC(CO)NC(=O)c1cc(-c2ccc(Cl)cc2)nn(-c2cnn(C)c2)c1=O: 85.5
COc1cc(Nc2ncc3c(n2)-c2ccc(Cl)cc2C(c2c(F)cccc2OC)=NC3)ccc1C(=O)O + Cc1cncc(-c2nc(NCCc3c[nH]c4ccccc34)c3ncn(C(C)C)c3n2)c1: 43.3
CC1(C)CCC(CN2CCN(c3ccc(C(=O)NS(=O)(=O)c4ccc(NCC5CCOCC5)c([N+](=O)[O-])c4)c(Oc4cnc5[nH]ccc5c4)c3)CC2)=C(c2ccc(Cl)cc2)C1 + Cc1cncc(-c2nc(NCCc3c[nH]c4ccccc34)c3ncn(C(C)C)c3n2)c1: 104
COc1cccc2c1C(=O)c1c(O)c3c(c(O)c1C2=O)CC(O)(C(=O)CO)CC3OC1CC(N)C(O)C(C)O1 (stereo unspecified) + Cc1ccccc1N=Nc1ccc(NC(=O)c2ccnn2C)c(C)c1: 15.5
Cn1ncnc1C1c2n[nH]c(=O)c3cc(F)cc(c23)NC1c1ccc(F)cc1 (stereo unspecified) + Cc1cncc(-c2nc(NCCc3c[nH]c4ccccc34)c3ncn(C(C)C)c3n2)c1: 76.7
CC1COCCN1c1cc(C2(S(C)(=N)=O)CC2)nc(-c2ccnc3[nH]ccc23)n1 (stereo unspecified) + CC(CO)NC(=O)c1cc(-c2ccc(Cl)cc2)nn(-c2cnn(C)c2)c1=O: 104
O=C(c1cc(Cc2n[nH]c(=O)c3ccccc23)ccc1F)N1CCN(C(=O)C2CC2)CC1 + CC(CO)NC(=O)c1cc(-c2ccc(Cl)cc2)nn(-c2cnn(C)c2)c1=O: 98.4
Nc1ccn(C2OC(CO)C(O)C2(F)F)c(=O)n1 (stereo unspecified) + Cc1cncc(-c2nc(NCCc3c[nH]c4ccccc34)c3ncn(C(C)C)c3n2)c1: 9.23
Nc1ccn(C2OC(CO)C(O)C2(F)F)c(=O)n1 (stereo unspecified) + CC(CO)NC(=O)c1cc(-c2ccc(Cl)cc2)nn(-c2cnn(C)c2)c1=O: 11.3

====

Below, each entry is listed with its recorded viability, T/C.
- Test system: 292921-168-R-J2-PDC complex spheroid growth
- Assay method text: Anticancer human tumor 292921-168-R-J2-PDC cell line growth inhibition [AhR];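 also: spheroids exposed to compounds for seven days after three days of growth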
- Run conditions: second compound 1 µM; first compound 0.316 µM; hits give low values
Readout: viability, T/C (%)

Nc1ccccc1NC(=O)c1ccc(CNC(=O)OCc2cccnc2)cc1 + CC(CO)NC(=O)c1cc(-c2ccc(Cl)cc2)nn(-c2cnn(C)c2)c1=O: 43.4
Nc1ccn(C2OC(CO)C(O)C2(F)F)c(=O)n1 (stereo unspecified) + CC(CO)NC(=O)c1cc(-c2ccc(Cl)cc2)nn(-c2cnn(C)c2)c1=O: 11.7
COc1cc(Nc2ncc3c(n2)-c2ccc(Cl)cc2C(c2c(F)cccc2OC)=NC3)ccc1C(=O)O + Cc1ccccc1N=Nc1ccc(NC(=O)c2ccnn2C)c(C)c1: 45.8
CC1COCCN1c1cc(-c2ccnn2C)c2ccnc(-c3ccn[nH]3)c2n1 (stereo unspecified) + CC(CO)NC(=O)c1cc(-c2ccc(Cl)cc2)nn(-c2cnn(C)c2)c1=O: 21.5
NS(=O)(=O)OCC1CC(n2ccc3c(NC4CCc5ccccc54)ncnc32)CC1O (stereo unspecified) + Cc1cncc(-c2nc(NCCc3c[nH]c4ccccc34)c3ncn(C(C)C)c3n2)c1: 30
CC1(C)CCC(CN2CCN(c3ccc(C(=O)NS(=O)(=O)c4ccc(NCC5CCOCC5)c([N+](=O)[O-])c4)c(Oc4cnc5[nH]ccc5c4)c3)CC2)=C(c2ccc(Cl)cc2)C1 + Cc1ccccc1N=Nc1ccc(NC(=O)c2ccnn2C)c(C)c1: 77.8
